# System: Lacticaseibacillus casei
# PROTOCOL DESCRIPTION: Tested for growth inhibition of Lactobacillus casei (ATCC […])
# Type: functional, organism-based
Here, each record is paired with measured pIC50 data.
// pIC50 is dimensionless: -log10 of concentration (M)

// worked examples, pIC50 included
MOLECULE	pIC50
Nc1nc(O)c2nc(CCNc3ccc(C(=O)NC(CCC(=O)O)C(=O)O)cc3)ccc2n1 (stereo not drawn)	7.72
Nc1nc(O)c2c(n1)CCC(CNc1ccc(C(=O)NC(CCC(=O)O)C(=O)O)cc1)N2 (stereo not drawn)	8.57

Incoming: Name the recorded pIC50 of the molecule listed here: Nc1nc(O)c2c(n1)NCC(CCNc1ccc(C(=O)NC(CCC(=O)O)C(=O)O)cc1)N2 (stereo not drawn)
Outgoing: 7.89

* * *

# System: Lacticaseibacillus casei
# PROTOCOL DESCRIPTION: Tested for growth inhibition of Lactobacillus casei (MTX resistant)
# Assay type: functional, organism-based
Form field: IC50 (one value per entry).
Write the answer as a number in nM, unit excluded.

MOLECULE	IC50 [nM]
Nc1nc(O)c2nc(CNc3ccc(C(=O)NC(CCC(=O)O)C(=O)O)cc3)ccc2n1 (centres undefined)	2040

Incoming: Quote IC50 reported for Nc1nc(O)c2nc(CCNc3ccc(C(=O)NC(CCC(=O)O)C(=O)O)cc3)ccc2n1 (centres undefined) please.
Outgoing: 330

* * *

pIC50 values by entry
# TARGET OR SYSTEM: Dihydrofolate reductase (Lactobacillus casei, UniProt P00381)
# Sequence (P00381 whole entry): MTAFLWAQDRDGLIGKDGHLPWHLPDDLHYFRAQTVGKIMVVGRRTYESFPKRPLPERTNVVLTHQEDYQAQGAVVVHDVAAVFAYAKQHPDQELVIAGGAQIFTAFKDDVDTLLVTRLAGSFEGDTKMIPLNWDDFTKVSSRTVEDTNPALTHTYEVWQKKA
# PROTOCOL DESCRIPTION: Inhibitory activity against dihydrofolate reductase of Lactobacillus casei
# Set-up: species or system Lacticaseibacillus casei
Give only the number. pIC50 is defined as minus log10 of concentration in molar units.

Observe how each entry below is paired with its result.
COMPOUND	pIC50
Nc1nc(O)c2nc(CNc3ccc(C(=O)NC(CCC(=O)O)C(=O)O)cc3)ccc2n1 (centres undefined)	4.92
Nc1nc(O)c2nc(CCNc3ccc(C(=O)NC(CCC(=O)O)C(=O)O)cc3)ccc2n1 (centres undefined)	3.66
Nc1nc2c(c(=O)[nH]1)NC(CCNc1ccc(C(=O)NC(CCC(=O)O)C(=O)O)cc1)CC2 (centres undefined)	3.64

Moving on to the next compound.
Incoming: Note down pIC50 recorded for Nc1nc(O)c2c(n1)CCC(CNc1ccc(C(=O)NC(CCC(=O)O)C(=O)O)cc1)N2 (centres undefined)
Outgoing: 4.26

* * *

# TARGET OR SYSTEM: Thymidylate synthase (Escherichia coli, UniProt C3SWJ7)
# Sequence (C3SWJ7 whole entry): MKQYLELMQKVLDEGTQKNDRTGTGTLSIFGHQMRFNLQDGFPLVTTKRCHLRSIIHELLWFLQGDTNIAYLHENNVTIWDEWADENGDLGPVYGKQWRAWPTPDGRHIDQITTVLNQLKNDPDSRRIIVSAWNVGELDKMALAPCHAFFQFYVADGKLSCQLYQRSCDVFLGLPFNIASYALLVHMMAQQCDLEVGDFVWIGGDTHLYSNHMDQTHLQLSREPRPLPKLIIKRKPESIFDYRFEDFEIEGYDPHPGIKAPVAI
VALUE TYPE: IC50 (nM)
Give your result in nM as a bare value.

Incoming: Provide Thymidylate synthase (Escherichia coli, UniProt C3SWJ7) IC50 reading for Nc1nc(O)c2c(n1)NCC(CCNc1ccc(C(=O)NC(CCC(=O)O)C(=O)O)cc1)N2 (stereo unspecified) .
Outgoing: 2000

* * *

# System: L1210
# PROTOCOL DESCRIPTION: Tested for growth inhibition of L1210 leukemia cells
# Format: functional, cell-based
# CONDITION LABEL: Mus musculus
VALUE TYPE: pIC50
# log scale: pIC50 equals minus log10 of the concentration in mol/L

Incoming: Identify measured pIC50 associated with Nc1nc2c(c(=O)[nH]1)NC(CCNc1ccc(C(=O)NC(CCC(=O)O)C(=O)O)cc1)CC2 (centres undefined)
Outgoing: 4.45

Incoming: // Input: Nc1nc(O)c2nc(CCNc3ccc(C(=O)NC(CCC(=O)O)C(=O)O)cc3)ccc2n1 (centres undefined) . Output its pIC50 only.
Outgoing: 4.06

Incoming: Given the compound CN(Cc1cnc2nc(N)nc(N)c2n1)c1ccc(C(=O)N[C@@H](CCC(=O)O)C(=O)O)cc1 [METHOTREXATE] , write its reported pIC50.
Outgoing: 8.41

Incoming: Query pIC50 for Nc1nc(O)c2nc(CNc3ccc(C(=O)NC(CCC(=O)O)C(=O)O)cc3)ccc2n1 (centres undefined)
Outgoing: 5.88

* * *

# Test system: Lacticaseibacillus casei
# PROTOCOL DESCRIPTION: Tested for growth inhibition of Lactobacillus casei (ATCC […])
# Format: functional, organism-based
Examples of compounds with documented IC50 follow.
The reply should contain only the number, in nM.

COMPOUND	VALUE TYPE	NUMBER
Nc1nc2c(c(=O)[nH]1)NC(CCNc1ccc(C(=O)NC(CCC(=O)O)C(=O)O)cc1)CC2 (centres undefined)	IC50	35
Nc1nc(O)c2nc(CCNc3ccc(C(=O)NC(CCC(=O)O)C(=O)O)cc3)cnc2n1 (centres undefined)	IC50	220
Nc1nc(O)c2nc(CNc3ccc(C(=O)NC(CCC(=O)O)C(=O)O)cc3)ccc2n1 (centres undefined)	IC50	1.4

Would you kindly look at the next entry?
Incoming: Supply reported IC50 belonging to this compound: CN(Cc1cnc2nc(N)nc(N)c2n1)c1ccc(C(=O)N[C@@H](CCC(=O)O)C(=O)O)cc1 [METHOTREXATE]
Outgoing: 0.05

* * *

Measured pIC50, listed per entry.
# TARGET OR SYSTEM: Thymidylate synthase (Lactobacillus casei)
# Sequence (P00469 whole entry): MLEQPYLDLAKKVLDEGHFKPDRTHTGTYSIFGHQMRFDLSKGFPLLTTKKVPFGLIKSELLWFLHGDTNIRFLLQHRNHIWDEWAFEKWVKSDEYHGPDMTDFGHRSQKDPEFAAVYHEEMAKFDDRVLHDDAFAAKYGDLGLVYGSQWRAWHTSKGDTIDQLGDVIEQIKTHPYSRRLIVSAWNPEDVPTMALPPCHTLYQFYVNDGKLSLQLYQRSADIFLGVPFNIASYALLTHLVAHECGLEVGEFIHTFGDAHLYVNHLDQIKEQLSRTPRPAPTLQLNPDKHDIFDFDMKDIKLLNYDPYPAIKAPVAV
Lab note — pIC50 values are minus log10 of concentrations in M.

Worked examples follow.
COMPOUND	pIC50
Nc1nc(O)c2nc(CCNc3ccc(C(=O)NC(CCC(=O)O)C(=O)O)cc3)ccc2n1 (centres undefined)	3.80
Nc1nc2c(c(=O)[nH]1)NC(CCNc1ccc(C(=O)NC(CCC(=O)O)C(=O)O)cc1)CC2 (centres undefined)	3.47
Nc1nc(O)c2nc(CNc3ccc(C(=O)NC(CCC(=O)O)C(=O)O)cc3)ccc2n1 (centres undefined)	4.85

Alright, here's another compound for you.
Incoming: Consider the compound Nc1nc(O)c2c(n1)CCC(CNc1ccc(C(=O)NC(CCC(=O)O)C(=O)O)cc1)N2 (centres undefined) and give its recorded pIC50.
Outgoing: 4.12

* * *

# Tested on: Enterococcus faecium
# PROTOCOL DESCRIPTION: Tested for growth inhibition of Streptococcus faecium (MTX resistant)
# Type: functional, organism-based
VALUE TYPE: IC50 (nM)
Value expressed in nM; do not type the unit.

Incoming: Report measured IC50; entry is CN(Cc1cnc2nc(N)nc(N)c2n1)c1ccc(C(=O)N[C@@H](CCC(=O)O)C(=O)O)cc1 [METHOTREXATE]
Outgoing: 8000

Incoming: Please report IC50 for the following compound: Nc1nc(O)c2nc(CCNc3ccc(C(=O)NC(CCC(=O)O)C(=O)O)cc3)ccc2n1 (stereo not given)
Outgoing: 1100

Incoming: Answer with reported IC50 of Nc1nc(O)c2c(n1)CCC(CNc1ccc(C(=O)NC(CCC(=O)O)C(=O)O)cc1)N2 (stereo not given)
Outgoing: 1040

Incoming: Name the recorded IC50 of the compound listed here: Nc1nc(O)c2nc(CNc3ccc(C(=O)NC(CCC(=O)O)C(=O)O)cc3)ccc2n1 (stereo not given)
Outgoing: 294
